Each entry below lists one item and its recorded refractive index value.
methodSummary: refractive index (Na D-line) (dimensionless)
experimentalParameters: 293.15 K; 101.33 kPa; Liquid; Standard Abbe refractometry
Reply with the value as a number alone.

Answered cases to consult:
CC[S+](CC)CC.O=S(=O)([N-]S(=O)(=O)C(F)(F)F)C(F)(F)F [triethylsulfonium bis((trifluoromethyl)sulfonyl)imide] : 1.4279
CCCC[N+]1(C)CCCC1.N#CN=C=[N-] [1-butyl-1-methylpyrrolidinium dicyanamide] : 1.4853
CC[S+](C)CC.O=S(=O)([N-]S(=O)(=O)C(F)(F)F)C(F)(F)F [diethylmethylsulfonium bis[(trifluoromethyl)sulfonyl]imide] : 1.4247

Switching to the query record.
# refractive index of CCCC[n+]1ccccc1.O=S(=O)([N-]S(=O)(=O)C(F)(F)F)C(F)(F)F [1-butylpyridinium bis[(trifluoromethyl)sulfonyl]imide] = 1.4444

----------
Entries and their measured electrical conductivity follow.
experimentalParameters: 298.15 K; 101.33 kPa; Liquid; Alternating current cell with electrodes
Give your result in S/m as a bare value.

CC[S+](CC)CC.O=S(=O)([N-]S(=O)(=O)C(F)(F)F)C(F)(F)F [triethylsulfonium bis((trifluoromethyl)sulfonyl)imide] : 0.708
CCCCCCCC[N+](C)(CCCCCCCC)CCCCCCCC.O=C([O-])C(F)(F)F [methyltrioctylammonium trifluoroacetate] : 0.00155
CCCC[n+]1ccccc1.O=S(=O)([N-]S(=O)(=O)C(F)(F)F)C(F)(F)F [1-butylpyridinium bis[(trifluoromethyl)sulfonyl]imide] : 0.326

Looking up CC[S+](C)CC.O=S(=O)([N-]S(=O)(=O)C(F)(F)F)C(F)(F)F [diethylmethylsulfonium bis[(trifluoromethyl)sulfonyl]imide] , I see its electrical conductivity listed as 0.688

----------
Below, each entry is listed with its recorded viscosity.
experimentalParameters: 298.15 K; 101.33 kPa; Liquid; Falling or rolling sphere viscometry
Give a bare numeral; the unit mPa·s is implied.

Observe how each entry below is paired with its result.
CC[S+](CC)CC.O=S(=O)([N-]S(=O)(=O)C(F)(F)F)C(F)(F)F [triethylsulfonium bis((trifluoromethyl)sulfonyl)imide] : 33.36
CCCC[n+]1ccccc1.O=S(=O)([N-]S(=O)(=O)C(F)(F)F)C(F)(F)F [1-butylpyridinium bis[(trifluoromethyl)sulfonyl]imide] : 61.39
CCCCCCCC[N+](C)(CCCCCCCC)CCCCCCCC.O=C([O-])C(F)(F)F [methyltrioctylammonium trifluoroacetate] : 1551

Then there is this compound:
Noted for CC[S+](C)CC.O=S(=O)([N-]S(=O)(=O)C(F)(F)F)C(F)(F)F [diethylmethylsulfonium bis[(trifluoromethyl)sulfonyl]imide] : its viscosity reads 40.71

----------
experimentalParameters: 368.15 K; 101.33 kPa; Liquid; Falling or rolling sphere viscometry
measure: viscosity (mPa·s)
Return type: number; implicit unit mPa·s.

Below, each entry is followed by its recorded viscosity result.
CC[S+](C)CC.O=S(=O)([N-]S(=O)(=O)C(F)(F)F)C(F)(F)F [diethylmethylsulfonium bis[(trifluoromethyl)sulfonyl]imide] : 6.826
CC[S+](CC)CC.O=S(=O)([N-]S(=O)(=O)C(F)(F)F)C(F)(F)F [triethylsulfonium bis((trifluoromethyl)sulfonyl)imide] : 5.849
CCCC[n+]1ccccc1.O=S(=O)([N-]S(=O)(=O)C(F)(F)F)C(F)(F)F [1-butylpyridinium bis[(trifluoromethyl)sulfonyl]imide] : 7.904

The reported viscosity of the compound CCCCCCCC[N+](C)(CCCCCCCC)CCCCCCCC.O=C([O-])C(F)(F)F [methyltrioctylammonium trifluoroacetate] was 36.92
